TESTED ON: Gal(b1-3)GalNAc(b1-4)[Neu5Ac(a2-3)]Gal(b1-4)Glc
PROTOCOL NOTES: glycan array binding signal (z-score within array); higher = stronger binding
ASSAY SETUP: glycan notation: IUPAC condensed, linker removed
About 410 targets per protein were measured; listed, in parts, are those with the strongest signals and a random draw of the rest.
Recorded glycan array binding signal (z-score) values for a group of binders are listed next.
RESULT TYPE: glycan array binding signal (z-score)

BINDER: Clone730PsrP (Streptococcus pneumoniae) (protein) MDHHHHHHHHHHASENLYFQGAMVVGSQTAAATEATAKKVEEDRKKPASDYVASVTNVNLQSYAKRRKRSVDSIEQLLASIKNAAVFSGNTIVNGAPAINASLNIAKSETKVYTGEGVDSVYRVPIYYKLKVTNDGSKLTFTYTVTYVNPKTNDLGNISSMRPGYSIYNSGTSTQTMLTLGSDLGKPSGVKNYITDKNGRQVLSYNTSTMTTQGSGYTWGNGAQMNGFFAKKGYGLTSSWTVPITGTDTSFTFTPYAARTDRIGINYFNGGGKVVESSTT
RESULT TYPE: glycan array binding signal (z-score)
OBSERVED RESULT: 2.82
--
BINDER: MIC1 (Neospora caninum), Q8WRS0 (protein) AGAKTYGEASQPSASARSLQGALDTWCQEVFKKLCDDGYSKMCIPANQVVARQGLGRKDQQKLVWRCYDSAAFLAEGDENNVLSCVDDCGVSIPCPGGVDRDNSTHATRHDELSQLIKEGVVRYCSGFQAAANSYCNKRYPGTVARKSKGFGHKEPVKWRCYKPESLLFSVFSECVSNCGTTWSCPGGRLGTATNLDKKHFTDESGILQALTSVPKACPVGLVCLPRDQNPPACLDDNGNVPE
RESULT TYPE: glycan array binding signal (z-score)
OBSERVED RESULT: -0.344
--
BINDER: Epa1to9 (Candida glabrata) (protein) MGSSHHHHHHSSGLVPRGSHMTSSNDISLASKDPTTFPLGCSPDITTPKKGLSMELYSYDFRKKGSYPCWDAAYLDPNYPRTGYKSHRLLAKVDGVTGNINFYYHATKGCTPQLGHLPASYNYPKPLTMTNFTMLLYGYFRPKVTGFHTFTISADDLLFVNFGAGNAFDCCRRDSSADHFGNYQAYAIWGSKTAKDELTVHLDAGVYYPIRLFYNNRDYHGALSFTFKTESNENTVSDFSEYFFSLDDTEEGCPGLISYD
RESULT TYPE: glycan array binding signal (z-score)
OBSERVED RESULT: 2.83
